The origin of these recorded values is ChEMBL document CHEMBL4431385.

Exercise: for every item that follows, state its recorded EC90.
Target: Nonstructural protein 5A (Hepatitis C virus) (UniProt Q5L478)
Sequence (Q5L478 as listed by the source): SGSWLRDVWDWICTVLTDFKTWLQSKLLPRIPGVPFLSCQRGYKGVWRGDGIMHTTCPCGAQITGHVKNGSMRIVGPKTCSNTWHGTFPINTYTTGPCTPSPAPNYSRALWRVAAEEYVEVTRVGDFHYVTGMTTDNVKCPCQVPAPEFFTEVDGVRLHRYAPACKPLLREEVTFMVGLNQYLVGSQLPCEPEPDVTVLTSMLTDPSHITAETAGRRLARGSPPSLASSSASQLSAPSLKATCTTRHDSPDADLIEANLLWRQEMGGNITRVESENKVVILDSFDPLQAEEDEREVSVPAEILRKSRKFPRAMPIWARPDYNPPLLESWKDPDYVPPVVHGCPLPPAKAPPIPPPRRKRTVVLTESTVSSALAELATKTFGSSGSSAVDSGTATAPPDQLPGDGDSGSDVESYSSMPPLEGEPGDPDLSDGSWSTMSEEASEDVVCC
Assay: Inhibition of HCV GT2b NS5A assessed as suppression of replicon RNA level by real-time PCR analysis
Conditions: Hepatitis C virus subtype 2b
Write the answer as a number in nM, unit excluded.

Enter reported EC90 observed with Nonstructural protein 5A (Hepatitis C virus) (UniProt Q5L478) for CCOc1cccc(C2Oc3cc(-c4cnc([C@@H]5C[C@@H](F)CN5C(=O)[C@@H](NC(=O)OC)C(C)C)[nH]4)cc(F)c3-c3cc4cc(-c5cnc([C@@H]6CCCN6C(=O)[C@@H](NC(=O)OC)C(C)C)[nH]5)ccc4n32)c1 (some centres undefined)
17

Provide the documented EC90 with Nonstructural protein 5A (Hepatitis C virus) (UniProt Q5L478) as the system for COC(=O)N[C@H](C(=O)N1C[C@H](F)C[C@H]1c1ncc(-c2cc(F)c3c(c2)OC(c2cccc(OC(C)C)c2)n2c-3cc3cc(-c4cnc([C@@H]5C[C@@H](F)CN5C(=O)[C@@H](NC(=O)OC)C(C)C)[nH]4)ccc32)[nH]1)C(C)C (some centres undefined)
122

Reported EC90 for Nonstructural protein 5A (Hepatitis C virus) (UniProt Q5L478), given COC(=O)N[C@H](C(=O)N1CCC[C@H]1c1ncc(-c2ccc3c(c2)cc2n3C(c3ccc(OC(F)(F)F)cc3)Oc3cc(-c4cnc([C@@H]5C[C@@H](F)CN5C(=O)[C@@H](NC(=O)OC)C(C)C)[nH]4)cc(F)c3-2)[nH]1)C(C)C (some centres undefined) ?
13

Could you share what EC90 was measured for COC(=O)N[C@H](C(=O)N1C[C@H](F)C[C@H]1c1ncc(-c2ccc3c(c2)OC(c2ccccc2)n2c-3c(F)c3cc(-c4cnc([C@@H]5C[C@@H](F)CN5C(=O)[C@@H](NC(=O)OC)C(C)C)[nH]4)ccc32)[nH]1)C(C)C (mixture of isomers) , tested on Nonstructural protein 5A (Hepatitis C virus) (UniProt Q5L478)?
58

---

Tested on: Nonstructural protein 5A (Hepatitis C virus), Q5L478 [UNDEFINED MUTATION]
Experiment: Inhibition of HCV GT1a NS5A L31V mutant assessed as suppression of replicon RNA level by real-time PCR analysis
Details: Hepatitis C virus subtype 1a
ENDPOINT_LABEL: EC90 (nM)
Please give a number only; it is taken to be in nM.

// returns reported EC90 for input COC(=O)N[C@H](C(=O)N1CCC[C@H]1c1ncc(-c2ccc3c(c2)cc2n3[C@H](c3ccccc3)Oc3cc(-c4cnc([C@@H]5CCCN5C(=O)[C@@H](NC(=O)OC)C(C)C)[nH]4)c(F)cc3-2)[nH]1)C(C)C
1

If you can, please state the reported EC90 value of CCOc1cccc(C2Oc3cc(-c4cnc([C@@H]5CCCN5C(=O)[C@@H](NC(=O)OC)C(C)C)[nH]4)ccc3-c3cc4cc(-c5cnc([C@@H]6CCCN6C(=O)[C@@H](NC(=O)OC)C(C)C)[nH]5)ccc4n32)c1 (some centres not stated) .
0.9

Please report the recorded EC90 for COC(=O)N[C@H](C(=O)N1CCC[C@H]1c1ncc(-c2ccc3c(c2)cc2n3C(c3cccc(OC)c3)Oc3cc(-c4cnc([C@@H]5C[C@@H](F)CN5C(=O)[C@@H](NC(=O)OC)C(C)C)[nH]4)cc(F)c3-2)[nH]1)C(C)C (some centres not stated) .
0.3

GET /values?readout=EC90&item= COC(=O)N[C@H](C(=O)N1CCC[C@H]1c1ncc(-c2ccc3c(c2)OC(c2cccc(OC(C)C)c2)n2c-3cc3cc(-c4cnc([C@@H]5CCCN5C(=O)[C@@H](NC(=O)OC)C(C)C)[nH]4)ccc32)[nH]1)C(C)C (some centres not stated)
0.5

Record request: EC90 value, item COC(=O)N[C@H](C(=O)N1CCC[C@H]1c1ncc(-c2cc(F)c3c(c2)OC(c2cccc(OC(C)C)c2)n2c-3cc3cc(-c4cnc([C@@H]5CCCN5C(=O)[C@@H](NC(=O)OC)C(C)C)[nH]4)ccc32)[nH]1)C(C)C (some centres not stated)
0.2

Reported EC90, compound COC(=O)N[C@H](C(=O)N1CCC[C@H]1c1ncc(-c2ccc3c(c2)O[C@@H](c2ccccc2)n2c-3c(F)c3cc(-c4cnc([C@@H]5CCCN5C(=O)[C@@H](NC(=O)OC)C(C)C)[nH]4)ccc32)[nH]1)C(C)C : ____
0.7

Entry COC(=O)N[C@H](C(=O)N1CCC[C@H]1c1ncc(-c2ccc3c(c2)cc2n3C(c3cccc(OC(F)(F)F)c3)Oc3cc(-c4cnc([C@@H]5C[C@@H](F)CN5C(=O)[C@@H](NC(=O)OC)C(C)C)[nH]4)ccc3-2)[nH]1)C(C)C (some centres not stated) : reported EC90 = ?
1.8

Would you kindly share the measured EC90 for COC(=O)N[C@H](C(=O)N1CCC[C@H]1c1ncc(-c2cc3c(c(-c4ccccc4)c2)-c2cc4cc(-c5cnc([C@@H]6CCCN6C(=O)[C@@H](NC(=O)OC)C(C)C)[nH]5)ccc4n2CO3)[nH]1)C(C)C ?
1

Record request: EC90 value, item COC(=O)N[C@H](C(=O)N1C[C@H](F)C[C@H]1c1ncc(-c2cc(F)c3c(c2)OC(c2ccccc2)n2c-3cc3cc(-c4cnc([C@@H]5C[C@@H](F)CN5C(=O)[C@@H](NC(=O)OC)C(C)C)[nH]4)ccc32)[nH]1)C(C)C (mixture of isomers)
9

Need EC90, item COC(=O)N[C@H](C(=O)N1CCC[C@H]1c1ncc(-c2ccc3c(c2)OCn2c-3cc3cc(-c4cnc([C@@H]5CCCN5C(=O)[C@@H](NC(=O)OC)C(C)C)[nH]4)ccc32)[nH]1)C(C)C
7

What does the data say about its EC90? Entry: COC(=O)N[C@H](C(=O)N1C[C@H](F)C[C@H]1c1ncc(-c2cc(F)c3c(c2)OC(c2cccc(OC(C)C)c2)n2c-3cc3cc(-c4cnc([C@@H]5C[C@@H](F)CN5C(=O)[C@@H](NC(=O)OC)C(C)C)[nH]4)ccc32)[nH]1)C(C)C (some centres not stated)
4

I'd like to know its EC90. The compound in question is COC(=O)N[C@H](C(=O)N1CCC[C@H]1c1ncc(-c2ccc3c(c2)cc2n3C(c3ccccc3)Oc3cc(-c4cnc([C@@H]5C[C@@H](F)CN5C(=O)[C@@H](NC(=O)OC)C(C)C)[nH]4)cc(F)c3-2)[nH]1)C(C)C (mixture of isomers)
2

What value of EC90 has been recorded for this entry: COC(=O)N[C@H](C(=O)N1CCC[C@H]1c1ncc(-c2cc3c(c(C4CC4)c2)-c2cc4cc(-c5cnc([C@@H]6CCCN6C(=O)[C@@H](NC(=O)OC)C(C)C)[nH]5)ccc4n2CO3)[nH]1)C(C)C
0.7

# input compound: CCOc1cccc(C2Oc3cc(-c4cnc([C@@H]5C[C@@H](F)CN5C(=O)[C@@H](NC(=O)OC)C(C)C)[nH]4)cc(F)c3-c3cc4cc(-c5cnc([C@@H]6C[C@@H](F)CN6C(=O)[C@@H](NC(=O)OC)C(C)C)[nH]5)ccc4n32)c1 (some centres not stated) ; wanted: its EC90
3

Form field: reported EC90 of CCOc1cccc(C2Oc3cc(-c4cnc([C@@H]5CCCN5C(=O)[C@@H](NC(=O)OC)C(C)C)[nH]4)cc(F)c3-c3cc4cc(-c5cnc([C@@H]6CCCN6C(=O)[C@@H](NC(=O)OC)C(C)C)[nH]5)ccc4n32)c1 (some centres not stated)
0.2

Request the reported EC90 associated with COC(=O)N[C@H](C(=O)N1C[C@H](F)C[C@H]1c1ncc(-c2cc(F)c3c(c2)OC(c2cccc(O[C@@H]4CCOC4)c2)n2c-3cc3cc(-c4cnc([C@@H]5C[C@@H](F)CN5C(=O)[C@@H](NC(=O)OC)C(C)C)[nH]4)ccc32)[nH]1)C(C)C (mixture of isomers)
7

# input compound: COC(=O)N[C@H](C(=O)N1CCC[C@H]1c1ncc(-c2ccc3c(c2)OCn2c-3cc3cc(-c4cnc([C@@H]5CCCN5C(=O)[C@@H](NC(=O)OC)C(C)C)[nH]4)c(F)cc32)[nH]1)C(C)C ; wanted: its EC90
68

---

I'd appreciate it if you could supply EC90 values for the items below.
Test system: Nonstructural protein 5A (Hepatitis C virus), Q5L478 [UNDEFINED MUTATION]
Assay: Inhibition of HCV GT1a NS5A L31V mutant assessed as suppression of replicon RNA level by real-time PCR analysis
Details: Hepatitis C virus subtype 1a
Form entry: value (nM) — number only.

Sample COC(=O)N[C@H](C(=O)N1CCC[C@H]1c1ncc(-c2ccc3c(c2)OC(c2cc(Cl)cc(OC)c2)n2c-3cc3cc(-c4cnc([C@@H]5CCCN5C(=O)[C@@H](NC(=O)OC)C(C)C)[nH]4)ccc32)[nH]1)C(C)C (mixture of isomers) — what was its EC90?
0.2

Quick one: EC90 for COC(=O)N[C@H](C(=O)N1CCC[C@H]1c1ncc(-c2cc(F)c3c(c2)O[C@@H](c2ccccc2)n2c-3cc3cc(-c4cnc([C@@H]5CCCN5C(=O)[C@@H](NC(=O)OC)C(C)C)[nH]4)ccc32)[nH]1)C(C)C ?
0.4

Sample COC(=O)N[C@H](C(=O)N1CCC[C@H]1c1ncc(-c2ccc3c(c2)cc2n3[C@H](c3ccccc3)Oc3c-2ccc(-c2cnc([C@@H]4CCCN4C(=O)[C@@H](NC(=O)OC)C(C)C)[nH]2)c3F)[nH]1)C(C)C — what was its EC90?
36

// EC90 lookup, key: COC(=O)N[C@H](C(=O)N1CCC[C@H]1c1ncc(-c2ccc3c(c2)OC(c2cccc(OC)c2)n2c-3cc3cc(-c4cnc([C@@H]5CCCN5C(=O)[C@@H](NC(=O)OC)C(C)C)[nH]4)ccc32)[nH]1)C(C)C (some centres undefined)
0.2
